# Tested on: DU-145
# Measurement protocol: NCI tumour cell line growth inhibition, 48 h
Active and inactive are the calls of the source. Rule as the data show it: active = GI50 up to about 1.1 µM and inactive = higher.
Would you mind answering with one of these outcomes? 1 = active, 0 = inactive

COc1cccc2c(=O)c3c(n(C)c12)OC(C(C)C)C3 (stereo not given)    0
CC(=O)O[C@H]1C(=O)[C@@]2(C)[C@H]([C@H](OC(=O)C3CCCCC3)[C@]3(O)C[C@H](OC(=O)[C@H](O)[C@@H](NC(=O)OC(C)(C)C)c4ccccc4)C(C)=C1C3(C)C)[C@]1(OC(C)=O)CO[C@@H]1C[C@@H]2O    1
CN(CCNC(=O)c1nn(-c2ccccc2)c2c1Cc1ccccc1-2)CCNC(=O)c1nn(-c2ccccc2)c2c1Cc1ccccc1-2    0
Sc1nn2c(COc3ccc(Cl)cc3)nnc2s1    0

Input line: Per the records of this test, what outcome belongs to Cc1cc(C)cc(Nc2nnc3n2S(=O)(=O)c2cc(C#N)c(Cl)cc2S3)c1 ?
Output line: 0

Input line: Per the records of this test, what outcome belongs to COC(=O)C1(N2CCOCC2)CCC([C@@H](c2ccccc2)C(C)[N+](=O)[O-])C1 (stereo not given in full) ?
Output line: 0

Input line: Per the records of this test, what outcome belongs to Cc1cc(S(=O)(=O)Nc2nnc3cnc4ccccc4n23)c(S)cc1Cl ?
Output line: 0

Input line: Per the records of this test, what outcome belongs to CC(C)c1cc(C(C)C)c(S(=O)(=O)N/N=C2\CC3CCC2(C)C3(C)C)c(C(C)C)c1 (stereo not given) ?
Output line: 0

Input line: Per the records of this test, what outcome belongs to CCSC1SC(c2ccccc2)(c2ccccc2)c2ccccc21 (stereo not given) ?
Output line: 0

Input line: Per the records of this test, what outcome belongs to CCOC(=O)c1cc2c([nH]1)C(=O)CC1=C2CCN1Cc1ccccc1 ?
Output line: 0

* * *

GI50 values for the compounds below.
# Tested on: SNB-75
# Measurement protocol: NCI tumour cell line growth inhibition, 48 h
The source made the active and inactive calls. Cut-off read from the data, not from the text of the source: active = GI50 up to about 1.1 µM and inactive = higher.

Examples with answers:
Cc1ccc2c(c1)[nH]c(=S)n2/C=C1\C(=O)Oc2ccccc2C1=O    38.4 µM (inactive)
COC(=O)C(Cc1ccccc1)NS(=O)(=O)c1ccc(-c2c3nc(c(-c4ccc(S(=O)(=O)NC(Cc5ccccc5)C(=O)OC)cc4)c4ccc([nH]4)c(-c4ccc(S(=O)(=O)NC(Cc5ccccc5)C(=O)OC)cc4)c4nc(c(-c5ccc(S(=O)(=O)NC(Cc6ccccc6)C(=O)OC)cc5)c5ccc2[nH]5)C=C4)C=C3)cc1 (stereo not drawn)    12.5 µM (inactive)
CC(=O)OCC1=C2C(OC(=O)C(C)C)CC3(COC(C)=O)OC3/C=C\C3(C)OC3C2OC1=O (stereo not drawn)    > 100 µM (inactive)
O=C(Nc1cccc2c1[nH]c1c(-c3ccccc3)nccc12)c1ccccc1[N+](=O)[O-]    29.7 µM (inactive)
Cc1ccc2[nH]c(=O)c(C(C#N)c3ccccc3)nc2c1 (stereo not drawn)    30.5 µM (inactive)

Input line: Name the reported GI50 value associated with the compound CC(=O)C1=CCC2c3[nH]c4ccccc4c3CCN2C1 (stereo not drawn)
Output line: 15.1 µM (inactive)

Input line: Name the reported GI50 value associated with the compound CCOP(=O)(OCC)/C(C#N)=C/c1cnc(-c2ccccc2)[nH]1
Output line: > 100 µM (inactive)

Input line: Name the reported GI50 value associated with the compound OCC1OC(c2cccc3cc(O)c(O)cc23)CC1O (stereo not drawn)
Output line: > 100 µM (inactive)

* * *

# Test system: HCC 2998
# Measurement protocol: NCI tumour cell line growth inhibition, 48 h
Calls of active or inactive are those of the source. Rule as the data show it: active = GI50 up to about 1.1 µM and inactive = higher.
Would you mind answering with one of these outcomes? active, inactive

Study these solved cases before continuing.
O=C(O)c1ccccc1CC(Cc1ccccc1)C(=O)O (stereo unspecified)    inactive
O=C(O)CCC1COc2ccccc2O1 (stereo unspecified)    inactive
COc1ccc(/C=N/n2c(Cc3ccc(Cl)cc3)n[nH]c2=O)cc1    inactive

Input line: Per the records of this test, what outcome belongs to CN(C)c1snc2c1c(=O)n(C)c(=O)n2C ?
Output line: inactive

Input line: Per the records of this test, what outcome belongs to CC(=O)N(C(=O)CC(=O)NNCc1ccccc1Cl)c1ccc(Cl)cc1 ?
Output line: inactive

Input line: Per the records of this test, what outcome belongs to COCCOC(=O)C(C)=[N+]=[N-] ?
Output line: inactive

Input line: Per the records of this test, what outcome belongs to C1=C(c2ccccc2)C(N2CCOCC2)Oc2ccccc21 (stereo unspecified) ?
Output line: inactive

* * *

# System: SR
# Measurement protocol: NCI tumour cell line growth inhibition, 48 h
Active and inactive are the calls of the source. Cut-off read from the data, not from the text of the source: active = GI50 up to about 1.1 µM and inactive = higher.
Would you mind answering with one of these outcomes? t for active, f for inactive

Study these solved cases before continuing.
COC(=O)C1=C(C)NC(C)=C(C(=O)OC)C1c1cccc(N=O)c1    f
O=C(O)c1ccccc1CC(Cc1ccccc1)C(=O)O (stereo not drawn)    f
CCOP(=O)(OCC)/C(C#N)=C/c1cnc(-c2ccccc2)[nH]1    f
C=CCCC1(C)CCCNC1=S (stereo not drawn)    f
S=C1NN=C2C(=C3CCCC4C5CCCCC5N2C34)N1 (stereo not drawn)    f
COc1ccc(NC(=O)C(=O)C2CNC(=O)NC2=O)c(OC)c1 (stereo not drawn)    f
O=C(N=C1N(c2ccccc2)C(=O)C(=O)N1c1ccccc1)c1ccccc1    f
COC(=O)c1ccccc1C1=C([N+](=O)[O-])C(c2ccccc2)C(C#N)=C(N)O1 (stereo not drawn)    f
COC(=O)[C@@H]1C2OC(C)(C)OC2CN1C(=O)OCc1ccccc1 (stereo partly drawn)    f
Cn1c2c(c3ccccc31)CCN1C(=O)C34CCCC3CC21S4 (stereo not drawn)    f

Input line: Per the records of this test, what outcome belongs to Cc1ccccc1NC(=O)C1C(=O)N(c2ccccc2C)C(=O)/C1=N\NC(N)=O (stereo not drawn) ?
Output line: f

Input line: Per the records of this test, what outcome belongs to CC1=C(C)C(=O)O[C@@H]([C@](C)(O)[C@]2(O)CC[C@@]3(O)[C@@H]4C[C@H](O)[C@]5(O)[C@@H](O)C=CC(=O)[C@]5(C)[C@H]4CC[C@]23C)C1 ?
Output line: f

Input line: Per the records of this test, what outcome belongs to CCC(C(=O)O)c1ccc(OCc2ccccc2)cc1 (stereo not drawn) ?
Output line: f

Input line: Per the records of this test, what outcome belongs to Clc1nc2c(-c3cccs3)ncnc2n1Cc1ccccc1 ?
Output line: f

Input line: Per the records of this test, what outcome belongs to O=C1c2c(F)c(F)c(F)c(F)c2SC2=Nc3cccc4cccc(c34)N12 ?
Output line: f

Input line: Per the records of this test, what outcome belongs to COc1cc(C2S/C(=C/c3ccccc3)C(=O)N2c2cc(Cl)ccc2Cl)cc(OC)c1OC (stereo not drawn) ?
Output line: f

Input line: Per the records of this test, what outcome belongs to COC(=O)C1=C(O)c2cc(OC)c(OC)c(OC)c2C(c2ccc3c(c2)OCO3)[C@@H]1C(=O)OC (stereo partly drawn) ?
Output line: f

Input line: Per the records of this test, what outcome belongs to COc1cc(C2SCC(=O)N2c2ccc(-n3c(-c4ccccc4)nc4ccccc4c3=O)cc2)cc(OC)c1OC (stereo not drawn) ?
Output line: f

Input line: Per the records of this test, what outcome belongs to CCN(CC)CCNC(=O)c1ccc([N+](=O)[O-])cc1OC ?
Output line: f

* * *

# System: SNB-19
# Measurement protocol: NCI tumour cell line growth inhibition, 48 h
The source made the active and inactive calls. No stated cut-off is given here; in the data, active = GI50 up to about 1.1 µM and inactive = higher.
Value kind: GI50

Input line: Any idea what GI50 came out for CC(=O)OCC1OC(n2c(S)c(C#N)c(-c3ccccc3)c(C#N)c2=O)C(OC(C)=O)C(OC(C)=O)C1OC(C)=O (centres undefined) on SNB-19?
Output line: 32.2 µM (inactive)

* * *

# Tested on: SNB-19
# Measurement protocol: NCI tumour cell line growth inhibition, 48 h
Active and inactive are the calls of the source. Rule as the data show it: active = GI50 up to about 1.1 µM and inactive = higher.
Would you mind answering with one of these outcomes? active, inactive

Cc1cc(S(=O)(=O)Nc2nnc3cnc4ccccc4n23)c(S)cc1Cl    inactive
Cc1cc2ncn(-c3nc4ccccc4nc3C(C#N)S(C)(=O)=O)c2cc1C (stereo not drawn)    inactive
FC(F)(F)c1ccccc1C1SCc2nc3ccccc3n21 (stereo not drawn)    inactive
Cc1ccc(NC(=S)N/N=C(/c2ccccc2)c2ccccn2)cc1    inactive
COC(=O)c1ccccc1C1=C([N+](=O)[O-])C(c2ccccc2)C(C#N)=C(N)O1 (stereo not drawn)    inactive
COC(=O)n1c(=O)nc2c3c(ncn21)Oc1c(c(-c2ccccc2)nn1-c1ccccc1)C3c1ccc(Cl)cc1 (stereo not drawn)    inactive

Input line: Per the records of this test, what outcome belongs to Cc1cccc(/C=N/NC(=S)NC(C)(C)C)n1 ?
Output line: inactive

Input line: Per the records of this test, what outcome belongs to O=c1c2ccccc2oc2ccccc12.Oc1cccc2cccnc12 ?
Output line: inactive
